Reference source: patent US20190338002A1

TARGET: T1, human alpha CGRP (SEQ ID NO: 80) (human, not fully specified)
T1 construct: also called human αCGRP; hαCGRP
T1 peptide: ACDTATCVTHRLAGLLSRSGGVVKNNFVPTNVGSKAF
EXPERIMENTAL DETAILS: SPR, 37 C, mutein captured, CGRP analyte

BINDER	Kd, nM
lipocalin mutein SEQ ID NO: 11 (designed binder, biotinylated by NHS chemistry for capture in SPR) QDSTSDLIPAPPLSKVPLQQNFQDNQFHGKWYVVGWAGNTLLREDKDPIKMQAIIYELKEDRSYNVTWVYFSEKKCNYHIETFVPGSQPGEFTLGTIKSYPGETPILVRVVSTNYNQHAMVFFKGVNQNREIFEIILYGRTKELTNELKENFIRFSKSLGLPENHIVFPVPIDQCIDGSAWSHPQFEK	0.015
lipocalin mutein SEQ ID NO: 14 (designed binder, biotinylated by NHS chemistry for capture in SPR) QDSTSDLIPAPPLSKVPLQQNFQDNQFHGKWYVVGRAGNDALREDKDPEKMEATIYELKEDKSYNVTDVGFVQKKCMYVIHTFVPGSQPGEFTLGNIKSYPGVTSALVRVVSTNYNQHAMVFFKLVKQNRELFEITLYGRTKELTSELKENFIRFSKSLGLPENHIVFPVPIDQCIDGSAWSHPQFEK	0.055
lipocalin mutein SEQ ID NO: 17 (designed binder, biotinylated by NHS chemistry for capture in SPR) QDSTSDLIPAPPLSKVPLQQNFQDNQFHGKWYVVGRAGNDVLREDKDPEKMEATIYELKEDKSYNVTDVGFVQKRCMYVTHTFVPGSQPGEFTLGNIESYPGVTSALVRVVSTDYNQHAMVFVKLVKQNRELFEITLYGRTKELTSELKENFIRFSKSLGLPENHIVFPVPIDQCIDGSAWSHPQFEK	0.011
lipocalin mutein SEQ ID NO: 7 (designed binder, biotinylated by NHS chemistry for capture in SPR) QDSTSDLIPAPPLSKVPLQQNFQDNQFHGKWYVVGWAGNTLLREDKDPIKMQATIYELKEDKSYNVTWVYFSEKRCNYHIETSVPGSQPGEFTLGTIKSYPGETSILVRVVSTNYNQHAMVFFKGVSQNREIFEITLYGRTKELTSELKENFIRFSKSLGLPENHIVFPVPIDQCIDGSAWSHPQFEK	0.067
lipocalin mutein SEQ ID NO: 23 (designed binder, biotinylated by NHS chemistry for capture in SPR) QDSTSDLIPAPPLSKVPLQQNFQDNQFHGKWYVVGWAGNTLLREDKDPIKMQAKIYELKEDRSYNVTWVYFADKKCNYHIETFVPGSQPGEFTLGLIKSYPGETPILVRVVSTNYNQHAMVFFKGVNQNREIFEIILYGRTKELTNELKENFIRFSKSLGLPENHIVFPVPIDQCIDGSAWSHPQFEK	0.011
lipocalin mutein SEQ ID NO: 24 (designed binder, biotinylated by NHS chemistry for capture in SPR) QDSTSDLIPAPPLSKVPLQQNFQDNQFHGKWYVVGWAGNTLLREDKDPIKMQAKIYELKEDRSYNVTWVYFAEKKCNYHIETFVPGSQPGEFTLGTIKSYPGETPILVRVVSTNYNQHAMVFFKGVNQNREIFEIILYGRTKELTNELKENFIRFSKSLGLPENHIVFPVPIDQCIDGSAWSHPQFEK	0.009
lipocalin mutein SEQ ID NO: 10 (designed binder, biotinylated by NHS chemistry for capture in SPR) QDSTSDLIPAPPLSKVPLQQNFQDNQFHGKWYVVGWAGNTLLREDKNPTKMQATIYELKEDKSYNATWVYLSEKKCNYHIETSVPGSQPGEFTLGTTKSYPGETPILVRVVSTNYNQHAMVFFKGVSQNREIFEITLYGRTKELTSELKENFIRFSKSLGLPENHIVFPVPIDQCIDGSAWSHPQFEK	0.163
lipocalin mutein SEQ ID NO: 12 (designed binder, biotinylated by NHS chemistry for capture in SPR) QDSTSDLIPAPPLSKVPLQQNFQDNQFHGKWYVVGWAGNTLLREDKDPPKMQATIYELKEDRSYNVTWVYFSEKKCNYHIETSVPGSQPGEFTLGTIQSHPGETPILVRVVSTNYNQHAMVFFKGMGQNREIFEITLYGRTKELTSELKENFIRFSKSLGLPENHIVFPVPIDQCIDGSAWSHPQFEK	0.15
lipocalin mutein SEQ ID NO: 13 (designed binder, biotinylated by NHS chemistry for capture in SPR) QDSTSDLIPAPPLSKVPLQQNFQDNQFHGKWYVVGRAGNEELREDKDPQKMEATIYELKEDKSYNVTDVGFSEKKCIYVIHTFVPGSQPGEFTLGNIKSYPGVTSALVRVVSTNYNQHAMVFFKVVKQNRELFEITLYGRTKELTSELKENFIRFSKSLGLPENHIVFPVPIDQCIDGSAWSHPQFEK	0.075
lipocalin mutein SEQ ID NO: 26 (designed binder, biotinylated by NHS chemistry for capture in SPR) QDSTSDLIPAPPLSKVPLQQNFQDNQFHGKWYVVGWAGNTLLREDKDPIKMQAKIYELKEDRSYNVTWVYFADKKCRYHIETFVPGSQPGEFTLGTIKSHPGETPILVRVVSTNYNQHAMVFFKGVNQNREIFEIILYGRTKELTNELKENFIRFSKSLGLPENHIVFPVPIDQCIDGSAWSHPQFEK	0.013
lipocalin mutein SEQ ID NO: 8 (designed binder, biotinylated by NHS chemistry for capture in SPR) QDSTSDLIPAPPLSKVPLQQNFQDNQFHGKWYVVGWAGNTLRREDKNPTKMQATIYELKEDKSYNVTWVYFSEKKCNYHIETSVPGSQPGEFTLGTIKSYPGETSILVRVVSTNYNQHAMVFFKGVSQNREIFEITLYGRTKELTSELKENFIRFSKSLGLPENHIVFPVPIDQCIDGSAWSHPQFEK	0.288
